Target: recombinant soluble homotrimeric HA of A/Egypt/3300-NAMRU3/08 (H5N1) (Influenza A virus A/Egypt/3300-NAMRU3/2008(H5N1))
Experiment: HA microarray, BCC supernatant
Conditions: remark: other sources report otherwise
measured.endpoint: Trimeric HA Binding: RLU (RLU)
Numeric answer only, unit RLU assumed.

Recorded Trimeric HA Binding: RLU for TCN-539 (5056_A08) (antibody, V domains shown) VH: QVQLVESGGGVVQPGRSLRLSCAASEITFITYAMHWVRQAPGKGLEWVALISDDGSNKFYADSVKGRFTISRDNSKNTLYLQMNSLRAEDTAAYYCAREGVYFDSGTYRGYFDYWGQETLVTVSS VL: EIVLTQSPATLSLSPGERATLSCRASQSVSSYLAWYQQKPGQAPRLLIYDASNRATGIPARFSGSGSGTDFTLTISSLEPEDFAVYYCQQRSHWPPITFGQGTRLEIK , please?
11400

Recorded Trimeric HA Binding: RLU for TCN-563 (5237_B21) (antibody, V domains shown) VH: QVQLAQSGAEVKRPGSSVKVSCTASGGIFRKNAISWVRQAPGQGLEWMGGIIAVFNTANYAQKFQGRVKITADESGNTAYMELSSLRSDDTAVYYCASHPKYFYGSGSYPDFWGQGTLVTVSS VL: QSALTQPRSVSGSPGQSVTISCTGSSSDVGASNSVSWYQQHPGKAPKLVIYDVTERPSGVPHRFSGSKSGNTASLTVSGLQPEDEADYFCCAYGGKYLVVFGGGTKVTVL , please?
27500

Recorded Trimeric HA Binding: RLU for TCN-540 (5060_F05) (antibody, V domains shown) VH: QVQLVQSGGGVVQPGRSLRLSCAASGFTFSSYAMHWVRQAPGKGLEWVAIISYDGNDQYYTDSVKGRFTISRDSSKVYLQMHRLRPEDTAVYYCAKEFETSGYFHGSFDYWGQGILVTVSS VL: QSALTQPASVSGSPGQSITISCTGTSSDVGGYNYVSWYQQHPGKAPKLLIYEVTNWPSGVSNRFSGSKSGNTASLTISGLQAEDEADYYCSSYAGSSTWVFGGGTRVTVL , please?
1970

Values compiled from patent US20150086555A1.
